test system: RPMI-8226 leukemia; test: NCI tumour cell line growth inhibition, 48 h
Entry flag: Condition met if TGI reaches 40 µM; Condition not met if it does not.

{"Molecule": "CSc1nc(-c2ccc(Cl)cc2)c(C#N)c(=O)n1C1OC(COC(C)=O)C(OC(C)=O)C(OC(C)=O)C1OC(C)=O (stereo not given)", "Label class": "Condition met"}
{"Molecule": "O=C1/C(=C/c2cccc(Cl)c2)CCCc2ccccc21", "Label class": "Condition met"}
{"Molecule": "OC1(C(Sc2cc(C(F)(F)F)cc(C(F)(F)F)c2)Sc2cc(C(F)(F)F)cc(C(F)(F)F)c2)C=CCCC1 (stereo not given)", "Label class": "Condition not met"}

Evaluate `O=C(O)CCNCC(=O)O` : TGI at minimum 40 µM?
Condition met

hey, is TGI for this one >= 40 µM? Cc1c(C)c2ccc(OCC(O)COC(C)C)c(C)c2oc1=O (stereo not given)
Condition met

Hello, I need to know if `CC(=O)Oc1ccccc1` has measured TGI not below 40 µM. Thanks!
Condition met

API: above_or_equal(metric=TGI, cutoff=40 µM) for item `CSc1ccc2c(cc1=O)[C@@H](NC(=O)c1cccc([N+](=O)[O-])c1)CCc1cc(O)c(O)c(O)c1-2`
Condition met

# bool: TGI of `COc1cc(/C=C/c2cc(/C=C/c3ccc(O)c(OC)c3)n(C(=O)c3ccc(Cl)cc3)n2)ccc1O` >= 40 µM
Condition not met

Decide: is the reported value of TGI for COc1cc2c(c(OC)c1OC)-c1ccc(OC)c(=O)cc1C(NC(=O)COc1ccccc1)CC2 (stereo not given) equal to or greater than 40 µM?
Condition not met

----------
Kindly supply the reported TGI values for the records listed here.
test system: SNB-78 CNS; assay: NCI tumour cell line growth inhibition, 48 h

Some solved cases for reference:
{"Compound": "COc1cc(/C=C2\\C(=O)N(C(=O)Cc3ccccc3)N=C2C)cc(OC)c1OC", "TGI": "> 100 µM"}
{"Compound": "CC1=N/C(=C/c2ccc3c(c2)OCO3)C(=O)O1", "TGI": "> 100 µM"}
{"Compound": "COc1cc(C(=O)NC2CCc3cc(OC)c(OC)c(OC)c3-c3ccc(OC)c(=O)cc32)cc(OC)c1OC (stereo unspecified)", "TGI": "> 100 µM"}

Could you tell me TGI for each of these compounds? They are listed below.
1. COc1cccc2c1c1ccc3c(c1n2C)C(=O)C=CC3=O
2. CC(C)(C)[Si](OC1CCOC1=O)(c1ccccc1)c1ccccc1 (stereo unspecified)
3. N#C/C(=C\c1cc(O)cc(O)c1)C(N)=O

["42.5 µM", "> 100 µM", "> 100 µM"]

----------
system: NCI-H23 lung; assay: NCI tumour cell line growth inhibition, 48 h; in the data active = GI50 below about 0.43 µM; inactive = the rest
Hi there, use one of these labels in your reply, thanks! yes (1) = active, no (0) = inactive

{"Cpd smiles": "COc1ccc(C(=O)C(CN(C)C)CN(C)C)cc1", "Label class": "no (0)"}
{"Cpd smiles": "O=C1N[C@@H]2[C@@H](O)[C@@H](O)[C@H](O)C[C@H]2c2cc3c(c(O)c21)OCCO3", "Label class": "yes (1)"}
{"Cpd smiles": "COc1ccc2c(c1)C(=O)c1c-2n(CCCN(C)C)c(=O)c2ccccc12", "Label class": "yes (1)"}
{"Cpd smiles": "Oc1c(Cl)cc(Cl)c(Cl)c1CNCCNCc1c(O)c(Cl)cc(Cl)c1Cl", "Label class": "no (0)"}

Hello, I am checking results. What call was entered for `NS(=O)(=O)OC[C@H]1C[C@@H](Nc2ccnc3cc(-c4cccc(SC(F)(F)F)c4)nn23)[C@H](O)[C@@H]1O` ?
yes (1)

Hi team, can someone confirm the assay call for `C[C@@H](Oc1cc(-n2cnc3ccc(OC4CCN(C)CC4)cc32)sc1C(N)=O)c1ccccc1Cl` ?
yes (1)

Tell me the assay call for `O=C(CN(/C=C/C(=O)C(F)(F)F)c1ccc(Cl)cc1)c1ccc(Cl)cc1` please.
no (0)

Name the outcome recorded for `O=C(CSc1nc2c(n1Nc1ccccc1)-c1ccccc1SC2)Nc1nc(-c2ccc(Cl)cc2)cs1` in the assay.
no (0)

Tell me the assay call for `Cc1nn(CNc2ccccc2C(F)(F)F)c(=S)n1/N=C/c1cccc2cccnc12` please.
no (0)
